These measurements were taken from the supplement of paper PMC10567573.

B1: C10orf62 (parent)
chain: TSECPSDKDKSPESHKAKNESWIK

# Variants of: B1
# EXPERIMENTAL PROTOCOL: protein stability index of a GFP-peptide fusion (GPS, HEK-293T) (PSI 1-6); higher = more stable;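 further: lentivirally expressed fusions sorted by FACS into six bins by GFP to DsRed ratio, PSI derived from sequencing read proportions per bin multiplied by bin number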
# CONDITION CONTEXT: c terminus: a fixed tail appended
# key: entry, value: protein stability index

**Q:** Fill in: protein stability index of `E20R` is ___
**A:** 4.09

**Q:** Look at this variant and give its reported protein stability index. `K18F`
**A:** 4.09

**Q:** State the recorded protein stability index for this entry: `K8W`
**A:** 2.99

**Q:** Return reported protein stability index; argument: `H15F`
**A:** 3

**Q:** Would you kindly share the measured protein stability index for `K16I` ?
**A:** 3.92

**Q:** Given the entry `S6M` , report its measured protein stability index.
**A:** 2.94

**Q:** Sample `C4I` — what was its protein stability index?
**A:** 3.92

**Q:** # input variant: `K18T` ; wanted: its protein stability index
**A:** 4.02

**Q:** Would you mind telling me what protein stability index value was observed for `E13D` ?
**A:** 2.98

**Q:** # input variant: `E20M` ; wanted: its protein stability index
**A:** 3.05
